Reference source: the supplement of paper PMC6089552

system: A673/TR/shEF; assay: cell viability (LOESS-normalised, relative to median of negative controls) (log2 ratio); higher = more viable cells (less compound effect), active = hit call of the paper (over 3 MAD below the median); settings: 0.25 µM; library screen: screen1; EWS-FLI1 expression: high (no doxycycline); treatment time: 72 h
About 300 (9.4%) of roughly 3,200 compounds showed activity. Shown is part of a subset that was picked to be rich in actives.
Checkbox rule: cell viability (log2) lower than 0.1 = Y; cell viability (log2) not lower than 0.1 = N.

O=C(O)c1cc(N(Cc2ccccc2O)Cc2cc(O)ccc2O)ccc1O	N
Nc1ccn([C@@H]2O[C@H](CO)[C@@H](O)[C@@H]2O)c(=O)n1	Y
COC1=CC(=O)C(O)=C/C1=C/C=C/c1ccccc1	Y
Cc1cc(Nc2ccc(O)cc2)n2c(nc3ccccc32)c1C#N	Y

Hello, is cell viability (log2) of the following compound strictly smaller than 0.1? "Nc1ncn([C@@H]2O[C@H](CO)[C@@H](O)[C@H]2O)c(=O)n1" Y

Then "O=C(O)c1cc(NCc2cc(O)ccc2O)ccc1O" ? N

====

tested on: A673/TR/shEF; assay: cell viability (LOESS-normalised, relative to median of negative controls) (log2 ratio); higher = more viable cells (less compound effect), active = hit call of the paper (over 3 MAD below the median); settings: 2.5 µM; library screen: screen1; EWS-FLI1 expression: low (doxycycline-induced shRNA knockdown); treatment time: 72 h
Out of some 3,200 compounds screened, about 300 (9.4%) showed activity. This is one part of a sample in which actives are shown more often than they occur.
recordedMetric: cell viability (log2)
Just the number, please, no unit after it.

Examples with their reported cell viability (log2) follow.
COc1ccc2c(c1)CCC1=CC(=O)CCC12C (stereo not given)	0.126
NC(C(=O)O)C(O)C(O)C(O)CO (stereo not given)	0.121

Notebook entry, A673/TR/shEF assay: cell viability (log2) of CC(=O)OCC(OC(C)=O)C(OC(C)=O)C(OC(C)=O)C(OC(C)=O)C(COC(C)=O)OC(C)=O (stereo not given) = ? -0.0056

Entry to check: "Cc1nnc(SCC(=O)N2c3ccccc3-c3c(ssc3=S)C2(C)C)s1" 0.255

Input "CC(C)(O)CC[C@@H](O)[C@@](C)(O)[C@H]1CC[C@@]2(O)C3=CC(=O)[C@@H]4C[C@@H](O)[C@@H](O)C[C@]4(C)[C@H]3CC[C@]12C" 0.0234

====

test system: A673/TR/shEF; experiment: cell viability (LOESS-normalised, relative to median of negative controls) (log2 ratio); higher = more viable cells (less compound effect), active = hit call of the paper (over 3 MAD below the median); conditions: 25 µM; library screen: screen3; EWS-FLI1 expression: low (doxycycline-induced shRNA knockdown); treatment time: 72 h
In all, about 3,200 compounds went through this assay and about 300 (9.4%) showed activity. This excerpt belongs to a sample that is enriched for actives.
One label from this list, please: active, inactive

Solved cases below.
CCCCCOC(=O)Nc1nc(=O)n([C@@H]2O[C@H](C)[C@@H](O)[C@H]2O)cc1F	inactive
C[C@H](NCCc1ccc(O)cc1)[C@H](O)c1ccc(O)cc1	inactive
Nc1cccc(-c2cc3c(Oc4cccc(O)c4)ncnc3[nH]2)c1	active

What did the test return for "Cc1cn([C@H]2C=C[C@@H](CO)O2)c(=O)[nH]c1=O" ? inactive

Next up: "COc1nc(N)nc2c1ncn2[C@@H]1O[C@H](CO)[C@@H](O)[C@@H]1O" inactive

Another compound to look at: "Cn1cnc2c(F)c(Nc3ccc(Br)cc3Cl)c(C(=O)NOCCO)cc21" inactive

Item: "O=C(O)C[C@H](O)C[C@H](O)/C=C/c1c(C2CC2)nc2ccccc2c1-c1ccc(F)cc1" active

Next: "CC(C)(O)[C@@H]1CC[C@](C)([C@H]2[C@@H](O)C[C@@]3(C)[C@@H]4C[C@H](O[C@@H]5O[C@H](CO)[C@@H](O)[C@H](O)[C@H]5O)[C@H]5C(C)(C)[C@@H](O[C@@H]6OC[C@@H](O)[C@H](O)[C@H]6O)CC[C@@]56C[C@@]46CC[C@]23C)O1" inactive

Follow-up item: "CCOc1cc2ncc(C#N)c(Nc3ccc(OCc4ccccn4)c(Cl)c3)c2cc1NC(=O)/C=C/CN(C)C" inactive

Would you mind doing "COc1cccc2c1C(=O)c1c(O)c3c(c(O)c1C2=O)C[C@@](O)(C(=O)CO)C[C@@H]3O[C@H]1C[C@H](N)[C@@H](O)[C@H](C)O1" as well? active

Next up: "CCOc1cc2ncc(C#N)c(Nc3ccc(F)c(Cl)c3)c2cc1NC(=O)/C=C/CN(C)C" active

Also, "CS(=O)(=O)c1ccc(C(=O)Nc2ccc(Cl)c(-c3ccccn3)c2)c(Cl)c1" please. inactive

====

system: A673/TR/shEF; experiment: cell viability (LOESS-normalised, relative to median of negative controls) (log2 ratio); higher = more viable cells (less compound effect), active = hit call of the paper (over 3 MAD below the median); conditions: 2.5 µM; library screen: screen1; EWS-FLI1 expression: low (doxycycline-induced shRNA knockdown); treatment time: 72 h
About 300 (9.4%) of roughly 3,200 compounds showed activity. What follows is part of a selection rich in actives, with near analogues and random picks from the rest.
recordedMetric: cell viability (log2)
Please give only the number in your answer, with no unit.

C=CCNc1nc2ccccn2c(=O)c1/C=C1\SC(=S)N(CCc2ccccc2)C1=O	0.134
CCOC(=O)c1c(C)cc(O)c(C)c1O	0.119
C/C1=C2N=C(/C=C3N=C(/C(C)=C4\[N-]C(C(CC(N)=O)C4(C)CCC(=O)NCC(C)OP(=O)([O-])OC4C(CO)OC(n5cnc6cc(C)c(C)cc65)C4O)C4(C)N=C1C(CCC(N)=O)C4(C)CC(N)=O)C(CCC(N)=O)C\3(C)C)C(CCC(N)=O)C/2(C)CC(N)=O.[Co+3] (centres undefined)	0.0491

Field: next compound
What does the data say about its cell viability (log2)? Entry: Cc1cc(=O)c2c(O)c3c(cc2o1)OCC(C)CC3 (centres undefined) 0.127

====

tested on: A673/TR/shEF; test: cell viability (LOESS-normalised, relative to median of negative controls) (log2 ratio); higher = more viable cells (less compound effect), active = hit call of the paper (over 3 MAD below the median); details: 0.025 µM; library screen: screen1; EWS-FLI1 expression: high (no doxycycline); treatment time: 72 h
In all, about 3,200 compounds went through this assay and about 300 (9.4%) showed activity. The list comes from a sample in which actives are over-represented; it also holds close analogues and randomly drawn compounds.
# strict inequality: cell viability (log2) < 0.05 yields YES, everything else yields NO

CCCCCCCCCCCCCCCC(=O)C1=C(O)[C@@H](CO)OC1=O	NO
CN([C@@H](Cc1ccc(OS(=O)(=O)c2cccc3cnccc23)cc1)C(=O)N1CCN(c2ccccc2)CC1)S(=O)(=O)c1cccc2cnccc12	NO
O=[N+]([O-])c1ccc(Oc2ccc(Br)cc2)c(C(O)[P+](=O)O)c1 (stereo not given)	YES
Cc1ccc(-c2nn(C(C)(C)C)c3ncnc(N)c23)cc1	YES

Dear reviewer, please state whether "CN(C)CCCn1cc(C2=C(c3c[nH]c4ccccc34)C(=O)NC2=O)c2ccccc21" has cell viability (log2) strictly beneath 0.05. NO

Another molecule: "CCCCCCCCCCCCCCCC(=O)O[C@H](CC(=O)[O-])C[N+](C)(C)C" YES

====

system: A673/TR/shEF; assay: cell viability (LOESS-normalised, relative to median of negative controls) (log2 ratio); higher = more viable cells (less compound effect), active = hit call of the paper (over 3 MAD below the median); conditions: 8.3 µM; library screen: screen3; EWS-FLI1 expression: low (doxycycline-induced shRNA knockdown); treatment time: 72 h
In all, about 3,200 compounds went through this assay and about 300 (9.4%) showed activity. The entries come from a sample that favours actives as a whole.
The recorded cell viability (log2) of each item maps onto one of these classes: low: < -0.05; medium: ≥ -0.05 and < 0.06; high: ≥ 0.06

COc1cc2ncnc(Nc3ccc(F)c(Cl)c3)c2cc1OCCCN1CCOCC1	high
CCCSc1ccc2nc(NC(=O)OC)[nH]c2c1	low
COc1ccc(-c2ccc3c(N4CCOCC4)nc(N4C[C@@H](C)O[C@@H](C)C4)nc3n2)cc1CO	low

Could you tell me which band "Cn1c(CNc2ccc(C(=N)N)cc2)nc2cc(C(=O)N(CCC(=O)O)c3ccccn3)ccc21" belongs to? high

Same lookup for "CC[C@H](CO)Nc1nc(NCc2ccccc2)c2ncn(C(C)C)c2n1" , please. medium

// next record "CNC(=O)c1ccccc1Sc1ccc2c(/C=C/c3ccccn3)n[nH]c2c1" high

Next compound up: CC(C)n1c(/C=C/C(O)CC(O)CC(=O)O)c(-c2ccc(F)cc2)c2ccccc21 (centres undefined) low

Follow-up entry: "c1cc(CN2CCCNCCNCCCNCC2)ccc1CN1CCCNCCNCCCNCC1" medium

Now give it for "O=c1c(-c2ccc(O)cc2)coc2cc(O)ccc12" too. high

Note, next up: "O=C(CCCCCCC(=O)Nc1ccccc1)NO" low

Another compound to check: "CCCCCCOC(=O)/N=C(/N)c1ccc(NCc2nc3cc(C(=O)N(CCC(=O)OCC)c4ccccn4)ccc3n2C)cc1" medium

// next record "CCN(CC)C(=S)SSC(=S)N(CC)CC" low

Please do the same for "COC(=O)Nc1nc2ccc(Sc3ccccc3)cc2[nH]1" as well. low

Please give the result for "COc1ncc(-c2ccc3nccc(-c4ccnnc4)c3c2)cc1NS(=O)(=O)c1ccc(F)cc1F" too. low

Could you do the same for "CCN(CC)CCNC(=O)c1c(C)[nH]c(/C=C2\C(=O)Nc3ccc(F)cc32)c1C" , please? high

Again, but for CN1CCCC(n2nc(Cc3ccc(Cl)cc3)c3ccccc3c2=O)CC1 (centres undefined) medium

Let us now turn to "COc1c/c(=C2\C=c3ccccc3=N2)[nH]/c1=C\c1[nH]c(C)cc1C" low

One more compound: "CCCCC(=O)N(Cc1ccc(-c2ccccc2-c2nn[nH]n2)cc1)[C@H](C(=O)O)C(C)C" high

"O=C(c1cc(Cc2n[nH]c(=O)c3ccccc23)ccc1F)N1CCN(C(=O)C2CC2)CC1" ? medium

Also "Oc1ccc([C@@H]2Oc3ccc(O)cc3[C@@H]3CCC[C@@H]32)cc1" , if possible. medium

Again, but for "Cc1ccc(NC(=O)c2ccc(CN3CCN(C)CC3)cc2)cc1Nc1nc(-c2cccnc2)cs1" high
